- target: human Cystic Fibrosis Transmembrane Conductance Regulator (CFTR) harboring the ΔF508 mutation (Homo sapiens, UniProt P13569, DEL508-508)
- Sequence (P13569 with tags, fused parts or gaps DEL508-508): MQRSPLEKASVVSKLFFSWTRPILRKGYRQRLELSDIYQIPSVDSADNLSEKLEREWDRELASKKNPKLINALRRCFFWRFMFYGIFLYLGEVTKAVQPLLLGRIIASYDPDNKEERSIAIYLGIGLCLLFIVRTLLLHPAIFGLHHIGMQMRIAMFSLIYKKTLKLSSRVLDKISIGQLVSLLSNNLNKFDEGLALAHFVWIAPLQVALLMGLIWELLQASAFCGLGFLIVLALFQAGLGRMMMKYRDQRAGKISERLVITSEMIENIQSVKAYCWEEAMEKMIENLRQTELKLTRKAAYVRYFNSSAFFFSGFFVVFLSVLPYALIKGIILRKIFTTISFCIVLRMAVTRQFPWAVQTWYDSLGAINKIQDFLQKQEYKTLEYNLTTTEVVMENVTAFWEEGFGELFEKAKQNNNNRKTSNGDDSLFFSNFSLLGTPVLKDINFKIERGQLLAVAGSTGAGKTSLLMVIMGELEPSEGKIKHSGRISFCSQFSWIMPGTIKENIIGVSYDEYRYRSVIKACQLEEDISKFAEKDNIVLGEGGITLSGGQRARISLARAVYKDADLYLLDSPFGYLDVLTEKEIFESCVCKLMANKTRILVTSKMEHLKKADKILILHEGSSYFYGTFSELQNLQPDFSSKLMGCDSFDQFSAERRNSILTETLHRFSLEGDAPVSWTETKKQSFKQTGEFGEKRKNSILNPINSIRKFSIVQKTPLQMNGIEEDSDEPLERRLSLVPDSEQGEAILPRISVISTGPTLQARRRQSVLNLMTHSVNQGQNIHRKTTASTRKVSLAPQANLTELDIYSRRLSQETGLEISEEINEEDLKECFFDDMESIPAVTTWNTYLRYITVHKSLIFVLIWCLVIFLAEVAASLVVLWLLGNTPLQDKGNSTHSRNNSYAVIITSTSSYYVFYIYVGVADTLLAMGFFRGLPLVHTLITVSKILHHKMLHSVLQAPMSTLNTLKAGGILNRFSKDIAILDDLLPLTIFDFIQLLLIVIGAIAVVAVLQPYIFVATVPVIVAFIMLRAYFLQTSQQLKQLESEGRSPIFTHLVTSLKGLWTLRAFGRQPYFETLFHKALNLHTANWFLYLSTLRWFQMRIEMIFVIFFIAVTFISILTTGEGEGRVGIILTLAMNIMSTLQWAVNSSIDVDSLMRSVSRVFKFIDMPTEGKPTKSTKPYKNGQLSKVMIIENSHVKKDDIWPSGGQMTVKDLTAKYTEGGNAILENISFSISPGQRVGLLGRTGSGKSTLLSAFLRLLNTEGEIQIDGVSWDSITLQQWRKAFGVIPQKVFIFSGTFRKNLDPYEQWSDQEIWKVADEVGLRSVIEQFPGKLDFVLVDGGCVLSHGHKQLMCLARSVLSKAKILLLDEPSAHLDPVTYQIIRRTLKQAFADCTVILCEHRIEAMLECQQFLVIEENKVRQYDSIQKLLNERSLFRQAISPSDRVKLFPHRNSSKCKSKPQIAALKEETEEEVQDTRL
- methodSummary: H441 cell ΔF508-CFTR-HRP cell surface assay (Emax and EC50)
readoutName: pEC50
Notebook: values listed as pEC50 are -log10 of the concentration (mol/L).

Data request: Quick one: pEC50 for CC(C)(C)C[C@H](NC(=O)c1ccc2cc(F)ccc2c1OCC1CCCCC1)C(=O)O ?
Data returned: 5.32

Data request: Quick one: pEC50 for CC(C)(C)[C@@H](NC(=O)c1ccc2ccc(Cl)cc2c1OCc1ccc(C(F)(F)F)cc1)C(=O)O ?
Data returned: 5.96

Data request: Quick one: pEC50 for CC1(C(NC(=O)c2ccc3ccccc3c2OCc2ccc(SC(F)(F)F)cc2)C(=O)O)CCCCC1 (stereo not shown) ?
Data returned: 6.15

Data request: Quick one: pEC50 for CC(OCc1ccccc1)[C@H](NC(=O)c1ccc2cc(F)ccc2c1OCc1nc2ccccc2s1)C(=O)O (stereo in doubt) ?
Data returned: 5.24

* * *

- target: human Cystic Fibrosis Transmembrane Conductance Regulator (CFTR) harboring the ΔF508 mutation (Homo sapiens, UniProt P13569, DEL508-508)
- Construct: expressed in transfected cells; host or cells: H441 carcinoma line (G418-selected)
- methodSummary: H441 cell ΔF508-CFTR-HRP cell surface assay (Emax and EC50)
- Assay type: cell-based
- measurementSetup: NCI-H441, NA = Not active
I'd appreciate it if you could supply Emax values for the items below.

Data request: Quick one: Emax for CC(C)(C)[C@H](NC(=O)c1ccc2ccc(C(F)(F)F)cc2c1OCc1ccc(OC(F)(F)F)cc1)C(=O)O ?
Data returned: 219%

Data request: Quick one: Emax for CC(C)(C)C[C@H](NC(=O)c1ccc2ccccc2c1OCc1ccc(C(F)(F)F)cc1)C(=O)O ?
Data returned: 147%

Data request: Quick one: Emax for CC1([C@H](NC(=O)c2ccc3ccc(C(F)(F)F)cc3c2OCc2ccc(C(F)(F)F)cc2)C(=O)O)CCCC1 ?
Data returned: 217%

Data request: Quick one: Emax for CC(C)(C)[C@H](NC(=O)c1ccc2ccc(F)cc2c1OCc1ccc(OC(F)(F)F)cc1)C(=O)O ?
Data returned: 235%

* * *

I'd appreciate it if you could supply pEC50 values for the items below.
- target: human Cystic Fibrosis Transmembrane Conductance Regulator (CFTR) harboring the ΔF508 mutation (Homo sapiens, UniProt P13569, DEL508-508)
- methodSummary: H441 cell ΔF508-CFTR-HRP cell surface assay (Emax and EC50)
Notebook: values listed as pEC50 are -log10 of the concentration (mol/L).

Data request: Quick one: pEC50 for O=C(N[C@H](C(=O)O)C12CC(C(F)(F)F)(C1)C2)c1ccc2ccccc2c1OCc1ccc(C(F)(F)F)cc1 ?
Data returned: 5.92

Data request: Quick one: pEC50 for Cc1ccc2ccc(C(=O)N[C@@H](C(=O)O)C(C)(C)C)c(OCc3ccc(OC(F)(F)F)cc3)c2c1 ?
Data returned: 5.82

Data request: Quick one: pEC50 for CC(OCc1ccccc1)[C@H](NC(=O)c1ccc2cc(F)ccc2c1OCc1ccc(Cl)c(Cl)c1)C(=O)O (stereo in doubt) ?
Data returned: 5.82

Data request: Quick one: pEC50 for Cc1cc(C)c(C[C@H](NC(=O)c2ccc3ccccc3c2OCc2ccc(C(F)(F)F)cc2)C(=O)O)c(C)c1 ?
Data returned: 6.05

Data request: Quick one: pEC50 for C=CC(C)(C)C(NC(=O)c1ccc2ccccc2c1OCc1ccc(C(F)(F)F)cc1)C(=O)O (stereo not drawn) ?
Data returned: 6.10

Data request: Quick one: pEC50 for CC(C)(S[C@@H]1C[C@@H]2CC[C@H]1C2)[C@H](NC(=O)c1ccc2ccccc2c1OCc1ccc(C(F)(F)F)cc1)C(=O)O ?
Data returned: 6.15
